Every entry's value here was drawn from ChEMBL document CHEMBL1961873.

Target: Tyrosine-protein kinase receptor UFO (Homo sapiens) (UniProt P30530)
Sequence (P30530 whole entry): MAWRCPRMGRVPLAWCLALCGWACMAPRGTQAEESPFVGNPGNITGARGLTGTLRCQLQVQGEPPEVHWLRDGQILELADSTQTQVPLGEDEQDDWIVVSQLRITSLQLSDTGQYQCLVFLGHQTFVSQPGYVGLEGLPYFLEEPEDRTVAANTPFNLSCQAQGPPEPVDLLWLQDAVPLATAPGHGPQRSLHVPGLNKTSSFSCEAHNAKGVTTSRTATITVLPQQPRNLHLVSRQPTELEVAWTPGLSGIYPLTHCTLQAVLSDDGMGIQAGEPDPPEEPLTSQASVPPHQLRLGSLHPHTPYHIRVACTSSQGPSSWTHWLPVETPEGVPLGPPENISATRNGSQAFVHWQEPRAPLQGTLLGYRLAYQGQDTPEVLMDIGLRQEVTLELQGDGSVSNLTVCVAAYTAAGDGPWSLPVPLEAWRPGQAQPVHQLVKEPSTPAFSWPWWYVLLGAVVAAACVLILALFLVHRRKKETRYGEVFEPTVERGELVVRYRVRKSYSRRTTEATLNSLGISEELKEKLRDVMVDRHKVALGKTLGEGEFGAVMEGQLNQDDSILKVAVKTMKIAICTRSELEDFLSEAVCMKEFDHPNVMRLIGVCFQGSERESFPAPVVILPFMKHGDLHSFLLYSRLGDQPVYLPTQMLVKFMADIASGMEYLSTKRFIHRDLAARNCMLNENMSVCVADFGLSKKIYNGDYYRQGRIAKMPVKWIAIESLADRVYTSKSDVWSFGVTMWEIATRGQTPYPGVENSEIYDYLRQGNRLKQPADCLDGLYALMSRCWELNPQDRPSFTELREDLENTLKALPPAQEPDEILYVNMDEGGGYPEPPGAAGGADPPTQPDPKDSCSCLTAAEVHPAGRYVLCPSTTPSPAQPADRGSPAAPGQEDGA
Details: at 0.1 µM
value-type: inhibition (%)
Write the value in % as a bare number.

Task: Form field: inhibition recorded for CCn1c(-c2nonc2N)nc2ccccc21 with Tyrosine-protein kinase receptor UFO (Homo sapiens) (UniProt P30530) (enter value)
Result: -0.67

Task: GET /values?readout=inhibition&system=Tyrosine-protein kinase receptor UFO (Homo sapiens) (UniProt P30530)&item= CC(C)COC(=O)c1ccc2c(c1)/C(=C/Nc1ccc(S(N)(=O)=O)cc1)C(=O)N2
Result: 1.97

Task: Value wanted: inhibition (Tyrosine-protein kinase receptor UFO (Homo sapiens) (UniProt P30530)) of entry CS(=O)(=O)CCNCc1ccc(-c2ccc3ncnc(Nc4ccc(OCc5ccccc5)c(C(F)(F)F)c4)c3c2)o1
Result: -6

Task: Which inhibition is reported with Tyrosine-protein kinase receptor UFO (Homo sapiens) (UniProt P30530) for this entry: CC1=C(C(=O)Nc2cc(Cl)c3[nH]ncc3c2)C(c2ccc(C(F)(F)F)cc2)CC(=O)N1 (stereo not given) ?
Result: -4.79

Task: For Tyrosine-protein kinase receptor UFO (Homo sapiens) (UniProt P30530), provide inhibition of COc1cc(/C=N/Nc2ncnc3[nH]ncc23)ccc1O please.
Result: -3.29

Task: What is its inhibition for Tyrosine-protein kinase receptor UFO (Homo sapiens) (UniProt P30530)? Entry: Cc1ccc(O)cc1Nc1ccnc2cc(-c3ccccn3)ccc12
Result: -5.44

Task: Kindly state the measured inhibition obtained for Cc1cccc2c1NC(=O)/C2=N\Nc1ccc(S(N)(=O)=O)cc1 with Tyrosine-protein kinase receptor UFO (Homo sapiens) (UniProt P30530).
Result: -3.51

Task: # value lookup — system Tyrosine-protein kinase receptor UFO (Homo sapiens) (UniProt P30530), readout inhibition, item COc1ccc(-c2cc(-c3c[nH]nc3-c3ccccn3)ccn2)cc1
Result: -6.83

Task: Form entry - test system: Tyrosine-protein kinase receptor UFO (Homo sapiens) (UniProt P30530); read-out: inhibition; compound: O=S(=O)(CCNCc1ccc(-c2ccc3ncnc(Nc4ccc(OCc5cccc(F)c5)c(Cl)c4)c3c2)o1)c1ccccc1;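 further: values are mean percent inhibition of AXL from the GSK PKIS screen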
Result: -7.43

Task: Identify the measured inhibition of COc1ccc(-c2oc3ncnc(N)c3c2-c2ccc(NC(=O)Nc3cc(C(F)(F)F)ccc3F)cc2)cc1 for Tyrosine-protein kinase receptor UFO (Homo sapiens) (UniProt P30530).
Result: 21.3
